# System: HIV-1 LAI envelope single-round infectious reporter virus
# PROCEDURE_DETAILS: Single-round infectious luciferase reporter virus (HIV-1 LAI envelope) infection of MT2 cells
# Assay type: cell-based
# MEASUREMENT_CONDITIONS: Human immunodeficiency virus 1, MT2, 72 h, read-out: EC50 Group from Table 1
pEC50: −log10 of the molar value.

COMPOUND	pEC50
C/C=C(\c1ccccc1)C1CCN(C(=O)C(=O)c2c[nH]c3ccccc23)CC1	< 6.30
COc1cnc(-n2cnc(C)n2)c2[nH]cc(C(=O)C(=O)N3CCC(C(c4ccccc4)c4nccn4C)CC3)c12 (stereo not drawn)	> 6.30
O=C(C(=O)N1CCC(Cc2ccccc2)CC1)c1c[nH]c2c(-n3ccnn3)ncc(F)c12	> 6.30
C=C(c1ccccc1)C1CCN(C(=O)C(=O)c2c[nH]c3ccccc23)CC1	< 6.30
CC(C)=C(c1ccccc1)C1CCN(C(=O)C(=O)c2c[nH]c3ccccc23)CC1	< 6.30
COc1cnc(-n2ccnn2)c2[nH]cc(C(=O)C(=O)N3CCC4(CC3)CC4(c3ccccc3)c3nnc(C)o3)c12 (stereo not drawn)	> 6.30
N#CC1(c2ccccc2)CC12CCN(C(=O)C(=O)c1c[nH]c3c(-n4ccnn4)ncc(F)c13)CC2 (stereo not drawn)	> 6.30
COc1ncc(OC)c2c(C(=O)C(=O)N3CCC4(CC3)CC4(C#N)c3ccccc3)c[nH]c12 (stereo not drawn)	> 6.30
O=C(C(=O)N1CCC(C(=O)c2ccccc2)CC1)c1c[nH]c2ccccc12	< 6.30

Cited source: patent US9505752B2
